Answer each item with its documented z-score.
Test Details: Plasmodium falciparum growth inhibition, primary screen, strain 3D7, DAPI fluorescence, 100 nL (AID 1184);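 note: parasites grown inside human red blood cells in medium with human serum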
Test Parameters: P. falciparum 3D7 growth, 3 d, higher = more signal
// no unit string in output, number only

Asked: If you can, please state the reported z-score value of NC(=O)NCC#Cc1ccc2c(c1)[C@]1(C(=O)N2)[C@H](C(=O)N2CCCCCCC2)[C@H]2C(=O)O[C@H](c3ccccc3)[C@H](c3ccccc3)N2[C@@H]1c1ccc(O)cc1 .
Given back: 0.285

Asked: If you can, please state the reported z-score value of COCCOC(=O)N1C(=O)[C@@]2(c3cc(C#CCC(C(=O)OC)C(=O)OC)ccc31)[C@H](C(N)=O)[C@H]1C(=O)O[C@H](c3ccccc3)[C@H](c3ccccc3)N1[C@@H]2c1ccc(OCCO)cc1 .
Given back: -2.07

Asked: If you can, please state the reported z-score value of COc1ccc([Si](C)(C)[C@H]2[C@H](CCn3cc([C@H](O)c4ccccc4)nn3)O[C@@]3(C(=O)N(c4ccccc4)c4ccccc43)[C@@H]2C)cc1 .
Given back: -1.18

Asked: If you can, please state the reported z-score value of C[N+](C)(C)CCCCCCNC(=O)[C@@H]1C[C@@H]2C(=O)N[C@@H](Cc3ccccc3)C(=O)N2[C@@H]1c1ccc(O)cc1 .
Given back: -0.324

Asked: If you can, please state the reported z-score value of NC(=O)NCC#Cc1ccc2c(c1)[C@]1(C(=O)N2)[C@H](C(=O)Nc2nc3ccccc3s2)[C@H]2C(=O)O[C@H](c3ccccc3)[C@H](c3ccccc3)N2[C@@H]1c1ccc(OCCO)cc1 .
Given back: -0.245

Asked: If you can, please state the reported z-score value of COCCOC(=O)N1C(=O)[C@@]2(c3cc(C#Cc4ccc(OC)cc4)ccc31)[C@H](C(=O)Nc1nc3ccccc3s1)[C@H]1C(=O)O[C@H](c3ccccc3)[C@H](c3ccccc3)N1[C@@H]2c1ccccc1OCCO .
Given back: -1.96

Asked: If you can, please state the reported z-score value of COC(=O)[C@]1(CO)N=C(c2ccc(OCCCO)cc2)O[C@@H]1c1ccccc1CN=[N+]=[N-] .
Given back: -0.217

Asked: If you can, please state the reported z-score value of CCCCN1CC=CC23O[C@@H]4C=CCOC(=O)[C@@H]4[C@H]2C(=O)N(CCO)[C@@H]3C1=O (some centres undefined) .
Given back: 1.12

Asked: If you can, please state the reported z-score value of CCOC(=O)C1=CC[C@@H](c2ccccc2)N(S(=O)(=O)C[Si](C)(C)C)[C@H]1c1ccccc1 .
Given back: -1.86

Asked: If you can, please state the reported z-score value of CC(C)[Si](C#CCCCC#N)(O[C@H](c1ccccc1)c1cn([C@H](C)c2ccccc2)nn1)C(C)C .
Given back: -0.133

Asked: If you can, please state the reported z-score value of C=CC[C@]1(C(=O)N(C)C)COC(c2ccc(OCCCO)cc2)=N1 .
Given back: -1.7

Asked: If you can, please state the reported z-score value of COC(=O)[C@@]1(Cc2ccccc2)[C@@H]2[C@@H](CC(=O)[C@H]2CC(=O)C(=O)N(C)C)CN1C(=O)c1ccccc1 .
Given back: -1.23

Asked: If you can, please state the reported z-score value of COc1ccc([Si](C)(C)[C@H]2[C@H](CCO)O[C@@]3(C(=O)N(Cc4ccccc4)c4ccc(N(C=O)c5ccccc5)cc43)[C@@H]2C)cc1 .
Given back: -2.74

Asked: If you can, please state the reported z-score value of O=C1N(Cc2ccccc2)c2ccccc2[C@H]2OC(c3ccc(OCCCO)cc3)=N[C@@]12Cc1ccccc1 .
Given back: -2.41

* * *

Test Details: CREB reporter modulators under forskolin, primary screen, cell-based, PC12, CRE-LacZ reporter, forskolin-stimulated (AID 1146);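 note: PC12 cells with 6xCRE LacZ reporter stimulated by forskolin 10 µM; beta-galactosidase reporter signal reflecting CREB driven transcription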
Test Parameters: luminescence, 4.5 h, higher = more signal, called active from +8 up or from −8 down
Test Readout: z-score
// no unit string in output, number only

Asked: If you can, please state the reported z-score value of CO[C@H]1O[C@H](CO)[C@@H](OC(=O)Nc2ccc3c(c2)OCO3)[C@@H]2OC(=O)[C@@H](Cc3ccccc3)C/C=C/C[C@H](Cc3ccccc3)C(=O)O[C@@H]12 .
Given back: -0.601

Asked: If you can, please state the reported z-score value of CC(=O)n1cc(C(O)C2C=CC3C(=O)N(c4ccccc4)C(=O)C3N2Nc2ccccc2F)c2ccccc21 (stereo not drawn) .
Given back: 0.499

Asked: If you can, please state the reported z-score value of COCCOC(=O)N1C(=O)[C@@]2(c3cc(C#CC4=CCCCC4)ccc31)[C@H](c1ccc(OCCO)cc1)N1[C@H](c3ccccc3)[C@H](c3ccccc3)OC(=O)[C@H]1[C@@H]2C(=O)N1CCCCCCC1 .
Given back: -1.13

Asked: If you can, please state the reported z-score value of CC(C)C(=C=CC[C@@H](O)c1ccccc1OCCO)C[C@@H](O)c1cc(Cl)cc(Cl)c1O .
Given back: 0.266

Asked: If you can, please state the reported z-score value of C=C(/C(=C/C[C@@H](OC(C)=O)c1ccccc1OCCO)c1cc(C(=O)OC)ccc1OC)C(C)C .
Given back: -0.37

Asked: If you can, please state the reported z-score value of COCCOC(=O)N1C(=O)[C@@]2(c3cc(C#Cc4ccc(OC)cc4)ccc31)[C@H](c1ccc(OCCO)cc1)N1[C@H](c3ccccc3)[C@H](c3ccccc3)OC(=O)[C@H]1[C@@H]2C(=O)N1CCCCCCC1 .
Given back: -0.498

Asked: If you can, please state the reported z-score value of [N-]=[N+]=NCc1ccccc1[C@@H]1OC(c2ccc(OCCCO)cc2)=N[C@]1(Cc1ccccc1)C(=O)NCc1ccccc1 .
Given back: 0.0071

Asked: If you can, please state the reported z-score value of [N-]=[N+]=NCc1ccccc1[C@H]1OC(c2ccc(OCCCO)cc2)=N[C@@]1(Cc1ccccc1)C(=O)N1CCOCC1 .
Given back: -0.227

* * *

System: glycogen synthase kinase-3 (GSK3A per assay name; protocol says GSK3B)
Test Details: GSK3 binders on small-molecule microarrays, primary screen, biochemical, small-molecule microarray, 635 nm fluorescence, GSK3A (AID 1103); note: the record names both GSK3A and GSK3B
Test Parameters: small-molecule microarray binding, fluorescence 635 nm; higher = more signal
Test Readout: composite z-score
// no unit string in output, number only

Asked: If you can, please state the reported composite z-score value of C=CC[C@@]1(C(=O)N(C)C)N=C(c2ccc(OCCCO)cc2)O[C@@H]1c1ccccc1 .
Given back: 1.01

Asked: If you can, please state the reported composite z-score value of O=c1cccc(-c2ccccc2C(F)(F)F)o1 .
Given back: -0.363

Asked: If you can, please state the reported composite z-score value of CCOC(=O)C[C@H]1[C@H](OC(=O)c2ccc(C(=O)c3ccccc3)cc2)[C@@H](NC(=O)c2ccc3ccccc3c2)c2cc(OCCCO)ccc2N1C(=O)c1ccc2ccccc2n1 .
Given back: 0.712

Asked: If you can, please state the reported composite z-score value of C=CCC(OC(C)=O)[C@@H]1[C@@H](N(Cc2cccc3ccccc23)C(=O)c2ccc(C)cc2)c2cc(OCCCO)ccc2N1C(=O)c1ccc2ccccc2n1 (some centres undefined) .
Given back: 0.104

Asked: If you can, please state the reported composite z-score value of COc1ccc(NN2C(C(O)c3ccc(OC)cc3)C=CC3C(=O)N(C4CCCCC4)C(=O)C32)cc1 (centres undefined) .
Given back: 1.14

Asked: If you can, please state the reported composite z-score value of C/C=C/CN(C(=O)C#Cc1ccccc1)[C@H](CO[Si](C)(C)C(C)(C)C)c1ccccc1 .
Given back: -0.0745

Asked: If you can, please state the reported composite z-score value of [N-]=[N+]=NCc1ccccc1C[C@]1(C(=O)N2CCOCC2)N=C(c2ccc(OCCCO)cc2)O[C@H]1c1ccccc1CN=[N+]=[N-] .
Given back: 0.935

Asked: If you can, please state the reported composite z-score value of COC(=O)[C@@]1(Cc2ccc(F)cc2)[C@H]2c3cc(C(=O)N4CCCC4)n(CCO)c3C[C@H]2CN1C(=O)c1ccccc1 .
Given back: -0.166

Asked: If you can, please state the reported composite z-score value of CC(C)=CCN(C(=O)C#Cc1ccccc1)[C@H](CO)c1ccccc1 .
Given back: 0.506

* * *

Test Details: basal HepG2 mitochondrial membrane potential changes, profiling panel, cell-based, JC-1 fluorescence, 24 h, 100 nL compound (AID 1167); note: test concentration not given here
Test Parameters: higher = more signal
Rule: z-score under -0.03 gives not satisfied, otherwise satisfied.

Asked: Does the compound CCCC[C@H]1OB(O)C[C@H]2C1=C(C)C[C@H]1C(=O)C=CC(=O)[C@H]12 have recorded z-score that is -0.03 or more?
Given back: not satisfied

Asked: Does the compound CC(C)CNC(=O)[C@@H]1c2ccccc2C(=O)N(C(C)C)[C@H]1c1ccc(CO)cc1 have recorded z-score that is -0.03 or more?
Given back: satisfied

Asked: Does the compound COCCOC(=O)N1C(=O)[C@@]2(c3cc(C#CC4=CCCCC4)ccc31)[C@H](C(=O)N1CCN(c3ncccn3)CC1)[C@H]1C(=O)O[C@H](c3ccccc3)[C@H](c3ccccc3)N1[C@@H]2c1ccccc1OCCO have recorded z-score that is -0.03 or more?
Given back: not satisfied

Asked: Does the compound CCCC[C@@H]1C[C@H]1[C@@H](NC(=O)Cc1ccccc1)c1ccc(Cl)cc1 have recorded z-score that is -0.03 or more?
Given back: not satisfied

Asked: Does the compound CC(C)C[C@@H]1NC(=O)[C@@H]2C[C@H](C(=O)O)[C@H](c3ccc(O)cc3)N2C1=O have recorded z-score that is -0.03 or more?
Given back: satisfied

Asked: Does the compound COCCOC(=O)N1C(=O)[C@@]2(c3cc(C#CCCO)ccc31)[C@H](c1ccc(O)cc1)N1[C@H](c3ccccc3)[C@H](c3ccccc3)OC(=O)[C@H]1[C@@H]2C(=O)N1CCc2cc(OC)c(OC)cc2C1 have recorded z-score that is -0.03 or more?
Given back: satisfied

Asked: Does the compound COCCOC(=O)N1C(=O)[C@@]2(c3cc(C#CC4(O)CCCCCC4)ccc31)[C@H](c1ccccc1OCCO)N1[C@H](c3ccccc3)[C@H](c3ccccc3)OC(=O)[C@H]1[C@@H]2C(=O)N1CCCCCCC1 have recorded z-score that is -0.03 or more?
Given back: not satisfied

Asked: Does the compound CCCCN1CC=CC23O[C@@H]4/C=C\CCC(C)OC(=O)C4[C@H]2C(=O)N(C(C)CO)[C@@H]3C1=O (some centres not stated) have recorded z-score that is -0.03 or more?
Given back: not satisfied

Asked: Does the compound CC(C)CNC(=O)[C@@H]1c2ccccc2C(=O)N(Cc2ccccc2)[C@H]1c1ccc(CO)cc1 have recorded z-score that is -0.03 or more?
Given back: satisfied

Asked: Does the compound C=C(COC)C(=O)CC[C@@H](OC(C)=O)c1ccc(OCCO)cc1 have recorded z-score that is -0.03 or more?
Given back: not satisfied

Asked: Does the compound NC(=O)NCC#Cc1ccc2c(c1)[C@]1(C(=O)N2)[C@H](C(=O)Nc2nc3ccccc3s2)[C@H]2C(=O)O[C@H](c3ccccc3)[C@H](c3ccccc3)N2[C@@H]1c1ccc(OCCO)cc1 have recorded z-score that is -0.03 or more?
Given back: not satisfied

Asked: Does the compound COCCOC(=O)N1C(=O)[C@@]2(c3cc(C#Cc4ccc(OC)cc4)ccc31)[C@H](C(=O)N1CCCCCCC1)[C@H]1C(=O)O[C@H](c3ccccc3)[C@H](c3ccccc3)N1[C@@H]2c1ccccc1OCCO have recorded z-score that is -0.03 or more?
Given back: satisfied
